Entry source: PubChem BioAssay (NCI)

- Test system: OVCAR-8 ovarian
- test.summary: NCI-60 one-dose screen, 48 h
- condition.set: 10 µM unless noted
The panel holds about 83,000 compounds, 20% with a hit somewhere; the sample as a whole holds those more often. Activity calls are given as the source filed them. Rule for the calls: active = growth percent below 10; inactive = the rest.
# valid calls are true (1) = active, false (0) = inactive; nothing else

Example entries begin here.
compound: CC(=O)ON1CCCC(P(=O)(OCCSC(=O)C(C)(C)C)OCCSC(=O)C(C)(C)C)C1=O (stereo not drawn)
target.entity: OVCAR-8 ovarian
classification: false (0)
//
compound: CC/C=C\CCC/C=C1/C(=O)C=C[C@@H]1C/C=C\CCCC(=O)OC
target.entity: OVCAR-8 ovarian
classification: false (0)
//
compound: CCCC(CC)(C(=O)Nc1ccc2nc(C)cc(N)c2c1)C(=O)Nc1ccc2nc(C)cc(N)c2c1
target.entity: OVCAR-8 ovarian
classification: false (0)
//
compound: CNC1=C([N+](=O)[O-])C(c2ccc(OC)cc2)C(C#N)=C(c2cccs2)O1 (stereo not drawn)
target.entity: OVCAR-8 ovarian
classification: false (0)

input: I would be grateful if you could indicate the recorded call for "CN1CCN(C(=O)[C@@]2(C)CC[C@]3(C)CC[C@]4(C)C(=CC[C@@H]5[C@@]6(C)CCC(=O)NC(C)(C)[C@@H]6CC[C@]54C)[C@@H]3C2)CC1" .
output: false (0)

input: I would be grateful if you could indicate the recorded call for "O=C(Nc1ncccc1OCc1ccccc1)NC1CCCCCC1" .
output: false (0)

input: I would be grateful if you could indicate the recorded call for "O=C(CCCCCCN1CC(=O)N2[C@H](c3ccc(Cl)cc3)c3[nH]c4ccccc4c3C[C@@H]2C1=O)NO" .
output: false (0)

input: I would be grateful if you could indicate the recorded call for "O=C(CC(=O)Nc1cccc(C(=O)O)c1)Nc1cccc(C(=O)O)c1" .
output: false (0)

input: I would be grateful if you could indicate the recorded call for "Oc1c(CN2CCOCC2)cc(COCc2ccccc2)c2cccnc12" .
output: false (0)

input: I would be grateful if you could indicate the recorded call for "C=CCN1C(=O)c2cccc3c(N4CCOCC4)ccc(c23)C1=O" .
output: false (0)

input: I would be grateful if you could indicate the recorded call for "O=C1/C=C/[C@@H](O)[C@@H]2C[C@@H](O)C[C@H]2/C=C/CCC[C@@H](O)CCO1" .
output: false (0)

* * *

Parameter: growth. Scope: all listed entries.
- Test system: HCT-116 colon
- test.summary: NCI-60 one-dose screen, 48 h (100 = growth as untreated, 0 = no growth, -100 = all killed)
- condition.set: 10 µM unless noted
The panel holds about 83,000 compounds, 20% with a hit somewhere; the sample as a whole holds those more often.
The figure you give is taken to be in %; do not add the unit.

query.smiles: Cc1ccc2nc(-c3ccc(C(=O)NNC(=S)Nc4ccccc4)cc3)[nH]c2c1
target.entity: HCT-116 colon
experimental.value: 84.6

input: HCT-116 colon / growth / "CN1CCN(Cc2ccc(NC(=O)c3cncc(C#Cc4cnc5ccc(Cl)nn45)c3)cc2C(F)(F)F)CC1" : value?
output: -12.6

input: HCT-116 colon / growth / "COc1ccc2c(c1)c(/C(O)=C1\COC(=O)C1=O)cn2Cc1ccc(F)cc1" : value?
output: 104

input: HCT-116 colon / growth / "C[C@H](CCCC(=O)NCC#CCN1CCN(C)CC1)[C@H]1CC[C@H]2[C@@H]3CC[C@@H]4CC(=O)CC[C@]4(C)[C@H]3CC[C@]12C" : value?
output: 68.2

input: HCT-116 colon / growth / "O=C(Cc1ccc(NC(=O)c2cccc(Cl)c2)cc1)NCc1ccccc1" : value?
output: 25.3

input: HCT-116 colon / growth / "CCCCC#Cc1c(I)n(C)c(=O)[nH]c1=O" : value?
output: -41.1

input: HCT-116 colon / growth / "CCOc1ccc(-n2nc(C(=O)NCc3ccccc3OC)nc2-c2cc(OC)c(OC)c(OC)c2)cc1" : value?
output: 25.3

input: HCT-116 colon / growth / "O=C(CCSc1nnc2n(Cc3ccccc3)c(=O)c3c4c(sc3n12)CCCC4)N1CCN(c2ccccc2)CC1" : value?
output: 100
